All figures here come from patent US5639751A.

Assign LD50 to each entry below.
- METHOD NOTES: Acute toxicity in mice
- CONDITIONS USED: mouse, in vivo, po, read-out: LD50 p.o.
Numbers only; they are read as mg/kg.

Prompt: Need LD50, item COCC(=O)Nc1ccc(C2=NN(C(C)=O)C(C)Cc3cc4c(cc32)OCO4)cc1 (stereo not shown) [Example 52]
Response: 188

Prompt: Need LD50, item CC(=O)N1N=C(c2ccc(NC=O)cc2)c2cc3c(cc2CC1C)OCO3 (stereo not shown) [Example 46]
Response: 162

Prompt: Need LD50, item CC(=O)N1N=C(c2ccc(NC(=O)CN)cc2)c2cc3c(cc2CC1C)OCO3 (stereo not shown) [Example 73]
Response: 168

Prompt: Need LD50, item CCC(=O)Nc1ccc(C2=NN(C(C)=O)C(C)Cc3cc4c(cc32)OCO4)cc1 (stereo not shown) [Example 48]
Response: 149

====

Assign ED50 to each entry below.
- System: male CFLP mice
- METHOD NOTES: Anticonvulsive effect in mice, pentetrazole
- Format: in vivo
- CONDITIONS USED: Mus musculus, po, read-out: ED50 p.o., Pentetrazole
Numbers only; they are read as mg/kg.

Prompt: Need ED50, item CNC(=O)N1N=C(c2ccc(N)cc2)c2cc3c(cc2CC1C)OCO3 (centres unmarked) [Example 98]
Response: 21.3

Prompt: Need ED50, item CN1C(=O)CN=C(c2ccccc2)c2cc(Cl)ccc21 [Diazepam, reference compound]
Response: 0.86

Prompt: Need ED50, item CC1=NN=C(c2ccc(N)cc2)c2cc3c(cc2C1)OCO3 [GYKI 52466, reference compound]
Response: 115

Prompt: Need ED50, item CNC(=O)N1N=C(c2ccc(N)cc2)c2cc3c(cc2CC1C)OCO3 (single isomer, unassigned; (-)) [Example 123]
Response: 13.8

Prompt: Need ED50, item CCC(=O)N1N=C(c2ccc(N)cc2)c2cc3c(cc2CC1C)OCO3 (centres unmarked)
Response: 29

====

- METHOD NOTES: Acute toxicity in mice
- CONDITIONS USED: mouse, in vivo, ip, read-out: LD50 i.p.
- Description: The cause of mortality was respiratory insufficiency developing within 1 to 2 hours after i.p. administration and within 10 to 20 hours after oral application.
MEASURE: LD50
Answer as a quantity: numeral, then unit.

Prompt: Need LD50, item CC(=O)N1N=C(c2ccc(N)cc2)c2cc3c(cc2CC1C)OCO3 (single isomer, unassigned; (-)) [Example 128]
Response: 73.5 mg/kg

Prompt: Need LD50, item CC(=O)N(C(C)=O)c1ccc(C2=NN(C(C)=O)C(C)Cc3cc4c(cc32)OCO4)cc1 (stereo not drawn)
Response: 271 mg/kg

Prompt: Need LD50, item CNC(=O)N1N=C(c2ccc(NC(=O)CN)cc2)c2cc3c(cc2CC1C)OCO3 (stereo not drawn)
Response: 90.7 mg/kg

Prompt: Need LD50, item CCC(=O)Nc1ccc(C2=NN(C(=O)CC)C(C)Cc3cc4c(cc32)OCO4)cc1 (stereo not drawn)
Response: 98.4 mg/kg

Prompt: Need LD50, item CC(=O)N1N=C(c2ccc(NC=O)cc2)c2cc3c(cc2CC1C)OCO3 (stereo not drawn)
Response: 173 mg/kg

Prompt: Need LD50, item CNC(=O)N1N=C(c2ccc(N)cc2)c2cc3c(cc2CC1C)OCO3 (stereo not drawn) [Example 98]
Response: 93.1 mg/kg
